assay: in vivo; settings: Sprague-Dawley, rat, plasma, iv, 1 mg/kg

| SMILES STR | UOM | clearance |
| --- | --- | --- |
| CC(C)n1nc(N)nc1-c1nc2c(s1)CCOc1cc(-c3cnn(CC(C)(C)O)c3)ccc1-2 | mL/min/kg | 55 |
| CC(C)n1ncnc1-c1nc2c(s1)CCOc1cc(C3CN(C[C@H](O)CO)C3)ccc1-2 | mL/min/kg | 57 |
| CC(C)n1ncnc1-c1nc2c(s1)CCOc1cc(C3CN(CCO)C3)ccc1-2 | mL/min/kg | 128 |

###

experiment: Oral bioavailability in Beagle dog at 2 mg/kg; type: ADME, organism-based, Canis lupus familiaris; settings: in vivo
QUANTITY: bioavailability (%)

| SMILES STR | UOM | MEASURED VALUE |
| --- | --- | --- |
| CC(C)n1ncnc1-c1nc2c(s1)CCOc1cc(-c3cnn(CCO)c3)ccc1-2 | % | 22 |

###

test: Apparent permeability across apical to basolateral side in MDCK cells; type: ADME, cell-based, Canis lupus familiaris; settings: dog

| SMILES STR | Papp A→B |
| --- | --- |
| CC(C)n1ncnc1-c1nc2c(s1)CCOc1cc(-c3cnn(CCO)c3)ccc1-2 | 16 ×10⁻⁶ cm/s |

###

Recorded measurements of clearance, one per entry
experiment: in vivo; conditions: nude, mouse, plasma, iv, 1 mg/kg

| SMILES STR | UOM | clearance |
| --- | --- | --- |
| Cc1nc(-c2nc3c(s2)CCOc2cc(-c4cnn(CCO)c4)ccc2-3)n(C(C)C)n1 | mL/min/kg | 2.2 |
| CC(C)n1ncnc1-c1nc2c(s1)CCOc1cc(-c3cnn(CCO)c3)ccc1-2 | mL/min/kg | 9.5 |
| CC(C)n1ncnc1-c1nc2c(s1)CCOc1cc(-c3cnn(C(C)(C)C(N)=O)c3)ccc1-2 | mL/min/kg | 13.4 |
| CC(C)n1ncnc1-c1nc2c(s1)CCOc1cc(C3CN(C(C)(C)C(N)=O)C3)ccc1-2 | mL/min/kg | 104 |
| CC(C)n1c(-c2nc3c(s2)CCOc2cc(-c4cnn(CC(C)(C)O)c4)ccc2-3)n[nH]c1=O | mL/min/kg | 22 |
| CC(C)n1ncnc1-c1nc2c(s1)CCOc1cc(-c3cnn(CC(C)(C)O)c3)ccc1-2 | mL/min/kg | 3.1 |
| CC(C)n1ncnc1-c1nc2c(s1)CCOc1cc(C3CN(CCO)C3)ccc1-2 | mL/min/kg | 132 |
| CC(C)n1nc(N)nc1-c1nc2c(s1)CCOc1cc(-c3cnn(CC(C)(C)O)c3)ccc1-2 | mL/min/kg | 4 |
| CC(C)n1ncnc1-c1nc2c(s1)CCOc1cc(C3CN(C[C@H](O)CO)C3)ccc1-2 | mL/min/kg | 165 |
| CC(C)n1ncnc1-c1nc2c(s1)CCOc1cc(-c3cnn(CS(C)(=O)=O)c3)ccc1-2 | mL/min/kg | 3.2 |
| CC(C)n1ncnc1-c1nc2c(s1)CCOc1cc(C3CN(CC(C)(C)O)C3)ccc1-2 | mL/min/kg | 170 |

###

assay: Oral bioavailability in Sprague-Dawley rat at 5 mg/kg; assay type: ADME, organism-based; conditions: in vivo

| SMILES STR | bioavailability [%] |
| --- | --- |
| CC(C)n1ncnc1-c1nc2c(s1)CCOc1cc(-c3cnn(CCO)c3)ccc1-2 | 83 |

The values you see were collected from ChEMBL document CHEMBL2380305.
